All figures here come from PubChem BioAssay AID1347418.

Target: Sulfhydryl oxidase 1 (Homo sapiens) (UniProt O00391)
Sequence (O00391 whole entry, looked up): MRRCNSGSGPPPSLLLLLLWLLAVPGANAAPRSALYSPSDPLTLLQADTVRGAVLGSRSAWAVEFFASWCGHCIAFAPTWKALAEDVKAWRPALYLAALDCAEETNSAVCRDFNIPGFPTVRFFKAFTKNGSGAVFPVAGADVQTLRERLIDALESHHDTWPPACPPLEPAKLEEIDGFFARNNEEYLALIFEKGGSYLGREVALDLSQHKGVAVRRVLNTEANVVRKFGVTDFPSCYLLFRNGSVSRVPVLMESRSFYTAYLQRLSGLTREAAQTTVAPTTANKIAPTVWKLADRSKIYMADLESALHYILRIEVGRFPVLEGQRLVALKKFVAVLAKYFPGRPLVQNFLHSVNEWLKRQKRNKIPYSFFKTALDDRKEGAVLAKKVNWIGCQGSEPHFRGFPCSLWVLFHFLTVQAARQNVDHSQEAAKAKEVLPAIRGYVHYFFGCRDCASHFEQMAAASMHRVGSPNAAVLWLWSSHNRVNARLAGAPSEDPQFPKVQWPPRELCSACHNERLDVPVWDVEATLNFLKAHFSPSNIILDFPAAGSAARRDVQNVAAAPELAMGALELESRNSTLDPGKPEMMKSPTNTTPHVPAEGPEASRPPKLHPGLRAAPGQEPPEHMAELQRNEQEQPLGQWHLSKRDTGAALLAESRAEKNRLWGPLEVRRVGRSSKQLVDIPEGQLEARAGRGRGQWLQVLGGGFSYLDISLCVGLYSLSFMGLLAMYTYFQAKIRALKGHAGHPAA
Assay: inhibition of human sulfhydryl oxidase QSOX1 – biochemical, ROS-Glo H2O2 luminescence, HTS, primary screen (AID 1347418)
Conditions: recombinant QSOX1, ROS-Glo H2O2 luminescence, at 12.5 µM, active compounds read high; active = any value above zero unless noted
Screen size: about 1,300 compounds; about 750 (58%) were called active. The list shows a part of the results.
Outcomes: active, inactive

{"columns": ["compound", "measured on", "class"],
 "data": [
  ["C#CCN[C@H](C)Cc1ccccc1", "Sulfhydryl oxidase 1 (Homo sapiens) (UniProt O00391)", "active"],
  ["CCCN(CCC)CCc1c[nH]c2ccc(C(N)=O)cc12", "Sulfhydryl oxidase 1 (Homo sapiens) (UniProt O00391)", "inactive"],
  ["NC(=O)c1cc(N2CC2)c([N+](=O)[O-])cc1[N+](=O)[O-]", "Sulfhydryl oxidase 1 (Homo sapiens) (UniProt O00391)", "inactive"],
  ["NCCc1c[nH]c2ccc(O)cc12", "Sulfhydryl oxidase 1 (Homo sapiens) (UniProt O00391)", "active"],
  ["CCS(=O)(=O)Nc1cccc(C(=C2CCCCC2)c2cnc[nH]2)c1", "Sulfhydryl oxidase 1 (Homo sapiens) (UniProt O00391)", "active"],
  ["CC(C)c1cccc(C(C)C)c1O", "Sulfhydryl oxidase 1 (Homo sapiens) (UniProt O00391)", "active"],
  ["O=C(O)CC[N+](=O)[O-]", "Sulfhydryl oxidase 1 (Homo sapiens) (UniProt O00391)", "inactive"],
  ["COC(=O)N1CCN(C(=O)Cc2ccc(Cl)c(Cl)c2)C(CN2CCCC2)C1 (stereo not given)", "Sulfhydryl oxidase 1 (Homo sapiens) (UniProt O00391)", "inactive"],
  ["C/C(O)=C(\\C#N)C(=O)Nc1cc(Br)ccc1Br", "Sulfhydryl oxidase 1 (Homo sapiens) (UniProt O00391)", "inactive"],
  ["CN(C(=O)Cc1ccc(Cl)c(Cl)c1)C(CN1CCCC1)c1cccc(OCC(=O)O)c1 (stereo not given)", "Sulfhydryl oxidase 1 (Homo sapiens) (UniProt O00391)", "active"],
  ["O=C1C=CC(=O)C=C1", "Sulfhydryl oxidase 1 (Homo sapiens) (UniProt O00391)", "inactive"],
  ["C[C@@H]1O[C@@H](O[C@H]2C[C@@H](O)[C@]3(CO)[C@H]4[C@H](O)C[C@]5(C)[C@@H](C6=CC(=O)OC6)CC[C@]5(O)[C@@H]4CC[C@]3(O)C2)[C@H](O)[C@H](O)[C@H]1O", "Sulfhydryl oxidase 1 (Homo sapiens) (UniProt O00391)", "active"],
  ["CC(N)c1cccc(Cl)c1Cl (stereo not given)", "Sulfhydryl oxidase 1 (Homo sapiens) (UniProt O00391)", "active"],
  ["CNCCc1c[nH]c2ccc(O)cc12", "Sulfhydryl oxidase 1 (Homo sapiens) (UniProt O00391)", "active"],
  ["O=c1[nH]oc2c1CCNC2", "Sulfhydryl oxidase 1 (Homo sapiens) (UniProt O00391)", "inactive"],
  ["NCCCP(=O)(O)O", "Sulfhydryl oxidase 1 (Homo sapiens) (UniProt O00391)", "active"],
  ["CC(C)(C)NCC(O)c1ccccc1Cl (stereo not given)", "Sulfhydryl oxidase 1 (Homo sapiens) (UniProt O00391)", "inactive"],
  ["c1ccc2c(c1)OCC(C1=NCCN1)O2 (stereo not given)", "Sulfhydryl oxidase 1 (Homo sapiens) (UniProt O00391)", "inactive"],
  ["Cc1c2ccncc2c(C)c2c1[nH]c1ccccc12", "Sulfhydryl oxidase 1 (Homo sapiens) (UniProt O00391)", "active"],
  ["COc1ccc2[nH]cc(CCN)c2c1", "Sulfhydryl oxidase 1 (Homo sapiens) (UniProt O00391)", "inactive"],
  ["NCCc1c[nH]c2ccc(C(N)=O)cc12", "Sulfhydryl oxidase 1 (Homo sapiens) (UniProt O00391)", "active"],
  ["Cc1nccc2c1[nH]c1ccccc12", "Sulfhydryl oxidase 1 (Homo sapiens) (UniProt O00391)", "inactive"],
  ["NC1CC1c1ccccc1 (stereo not given)", "Sulfhydryl oxidase 1 (Homo sapiens) (UniProt O00391)", "inactive"],
  ["C=C(C)[C@H]1Cc2c(ccc3c2O[C@@H]2COc4cc(OC)c(OC)cc4[C@@H]2C3=O)O1", "Sulfhydryl oxidase 1 (Homo sapiens) (UniProt O00391)", "active"],
  ["C[C@]12Cc3cn4c(nc3C=C1CCC1C2CC[C@@]2(C)[C@H]1CC[C@@]2(O)C#N)nc1ccccc14 (stereo not given in full)", "Sulfhydryl oxidase 1 (Homo sapiens) (UniProt O00391)", "active"]
]}
